Every entry's value here was drawn from PubChem BioAssay (NCI).

# Test system: UO-31 renal
# method-notes: NCI-60 one-dose screen, 48 h (100 = growth as untreated, 0 = no growth, -100 = all killed)
# condition-parameters: 10 µM unless noted
The panel holds about 83,000 compounds, 20% with a hit somewhere; the sample as a whole holds those more often.
Recorded measurements of growth, one per entry
Field: numeric (%). Do not append units.

Answered cases to consult:
C=C=[CH][Sn]([c]1ccccc1)([c]1ccccc1)[c]1ccccc1: -84.3
C[C@@H]1O[C@@H](O[C@H]2CC[C@@]3(C)[C@H](CCC4[C@@H]3C(O)C[C@]3(C)[C@@H](c5ccc(=O)oc5)CC[C@]43O)C2)[C@H](O)[C@H](O)[C@H]1O (stereo not given in full): -97.3
CC1(C)N=C(N)N=C(N)N1c1ccc(CCCCc2ccc(Cl)cc2S(=O)(=O)F)c(Cl)c1: 60.7
CC(C)(C)NCC(O)c1ccccc1Cl (stereo not given): 48.1
CC1(C)N=C(N)N=C(N)N1c1ccc(OCCCCNC(=O)Nc2cccc(S(=O)(=O)F)c2)c(Cl)c1: 90.1
CC1(C)N=C(N)N=C(N)N1c1cccc(C(=O)Nc2cccc(S(=O)(=O)F)c2)c1: 78.5
O=C(O)c1nn(Cc2ccc(Cl)cc2)c2ccccc12: 95.7
CC12CCC(=O)C=C1CCC1C2CCC2(C)C(C(=O)COC(=O)Cc3ccc(N(CCCl)CCCl)cc3)CCC12 (stereo not given): 72.8

Read the next record carefully.
Query: // fetch UO-31 renal growth for CC(=O)C1C(=O)N(C)C(=O)N(C)C1=O
Reply: 96.1
